Reported log10 IC50 values for the following compounds.
- assayed.system: Kras and SOS1 (biotin-tagged human Kras loaded with GDP, His-tagged human SOS1) (Homo sapiens, UniProt P01116, G12D)
- Construct: made in house; host or cells: E. coli (stated for Kras only)
- Sequence (P01116 1-188 isoform P01116-2 G12D): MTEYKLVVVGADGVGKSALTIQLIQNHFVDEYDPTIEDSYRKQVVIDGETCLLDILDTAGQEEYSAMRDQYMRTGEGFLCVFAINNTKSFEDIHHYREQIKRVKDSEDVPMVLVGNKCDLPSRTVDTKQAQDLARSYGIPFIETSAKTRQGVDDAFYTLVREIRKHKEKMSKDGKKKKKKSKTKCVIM
- assay.name: Protein-protein interaction inhibition between Kras and SOS1 (KrasGl2D-SOS PPI) using AlphaScreen
- Type: binding
- experimental.conditions: AlphaScreen; biotin-tagged human Kras loaded with GDP, His-tagged human SOS1; read-out: KRAS G12D-SOS PPI IC50
Starred links: 1 amine or outer side, 2 acyl side, 3 side chain; linkers in the order of their positions; H or OH if unused. Positions of bridges follow the written chain, without caps; N, C: chain ends. Non-standard residues stand in square brackets, D forms with d. Residues, ends and D or L forms follow the SMILES beside them. *: point of attachment. hPhe(3,5-F2-4-CF3) = N[C@@H](CCc1cc(F)c(C(F)(F)F)c(F)c1)C(=O)O; hPhe(3-Cl-4-CF3) = N[C@@H](CCc1ccc(C(F)(F)F)c(Cl)c1)C(=O)O; Thiomorpholino(1,1-dioxo) = O=S1(=O)CCN(*)CC1; NMePhe(4-Cl) = CN[C@@H](Cc1ccc(Cl)cc1)C(=O)O; NMePhe(4-Me) = CN[C@@H](Cc1ccc(C)cc1)C(=O)O; NMedβ3hAla = C[C@H](CC(=O)[*:2])N(C)[*:1]; NMeGly(cPent) = CN[C@H](C(=O)O)C1CCCC1; Pro(4,4-F2) = O=C(O)[C@@H]1CC(F)(F)CN1; Gly(cPent) = N[C@H](C(=O)O)C1CCCC1; NMeCha = CN[C@@H](CC1CCCCC1)C(=O)O; NMeChg = CN[C@H](C(=O)O)C1CCCCC1; NMeD = CN[C@@H](CC(=O)O)C(=O)O; NMeL = CN[C@@H](CC(C)C)C(=O)O; NMeNva = CCC[C@H](NC)C(=O)O; NMeV = CN[C@H](C(=O)O)C(C)C; NMeA = CN[C@@H](C)C(=O)O; Piperidide = C1CCN(*)CC1; Pyrrolidide = C1CCN(*)C1; Ac5c = NC1(C(=O)O)CCCC1; Aze = O=C(O)[C@@H]1CCN1; Ac4c = NC1(C(=O)O)CCC1; Sar = CNCC(=O)O
metric.name: log10 IC50 (log10 of the value in nM)

compound | metric.name | quantitative.result
CC[C@H](C)[C@@H]1NC(=O)[C@H](CC(C)C)N(C)C(=O)C[C@@H](C(=O)N2CCS(=O)(=O)CC2)N(C)C(=O)[C@H](C(C)C)N(C)C(=O)C2(CCCC2)NC(=O)[C@@H]2CCCN2C(=O)[C@H](CCc2ccc(C(F)(F)F)c(Cl)c2)NC(=O)CN(C)C(=O)[C@H](CC2CCCCC2)N(C)C(=O)[C@@H]2CCN2C(=O)[C@H](C)N(C)C1=O [Compound 1238] ([NMeL]I[NMeA][Aze][NMeCha][Sar][hPhe(3-Cl-4-CF3)]P[Ac5c][NMeV][NMeD]-{Thiomorpholino(1,1-dioxo)}; lactam N-11) | log10 IC50 | 1.00
CC[C@H](C)[C@@H]1NC(=O)[C@H](CC(C)C)N(C)C(=O)C[C@@H](C(=O)N(C)C)N(C)C(=O)[C@H](C2CCCC2)N(C)C(=O)C2(CCCC2)NC(=O)[C@H](Cc2ccc(Cl)cc2)N(C)C(=O)[C@H](CCc2ccc(C(F)(F)F)c(Cl)c2)NC(=O)CN(C)C(=O)[C@H](CC2CCCCC2)N(C)C(=O)[C@@H]2CCN2C(=O)[C@H](C)N(C)C1=O [Compound 1063] ([NMeL]I[NMeA][Aze][NMeCha][Sar][hPhe(3-Cl-4-CF3)][NMePhe(4-Cl)][Ac5c][NMeGly(cPent)][NMeD]-NMe2; lactam N-11) | log10 IC50 | 1.63
CCC[C@H]1C(=O)N[C@@H]([C@@H](C)CC)C(=O)N(C)CC(=O)N(C)CC(=O)N(C)[C@@H](Cc2ccc(C)cc2)C(=O)N(C)CC(=O)N[C@@H](CCc2cc(F)c(C(F)(F)F)c(F)c2)C(=O)N2CC(F)(F)C[C@H]2C(=O)NC2(CCCC2)C(=O)N(C)[C@@H](C2CCCCC2)C(=O)N(C)[C@H](C(=O)N2CCCC2)CC(=O)N1C [Compound 1306] ([NMeNva]I[Sar][Sar][NMePhe(4-Me)][Sar][hPhe(3,5-F2-4-CF3)][Pro(4,4-F2)][Ac5c][NMeChg][NMeD]-Pyrrolidide; lactam N-11) | log10 IC50 | -0.30
CC[C@H](C)[C@@H]1NC(=O)[C@H](CC(C)C)N(C)C(=O)C[C@@H](C)N(C)C(=O)[C@H](C(C)C)N(C)C(=O)C2(CCC2)NC(=O)[C@@H]2CCCN2C(=O)[C@H](CCc2ccc(C(F)(F)F)c(Cl)c2)NC(=O)CN(C)C(=O)[C@H](CC2CCCCC2)N(C)C(=O)CN(C)C(=O)CN(C)C1=O [Compound 837] (cyclo([Ac4c][NMeV][NMedβ3hAla][NMeL]I[Sar][Sar][NMeCha][Sar][hPhe(3-Cl-4-CF3)]P)) | log10 IC50 | 0.78
CC(C)C[C@H]1C(=O)N[C@@H](C2CCCC2)C(=O)N(C)CC(=O)N(C)CC(=O)N(C)[C@@H](CC2CCCCC2)C(=O)N(C)CC(=O)N[C@@H](CCc2ccc(C(F)(F)F)c(Cl)c2)C(=O)N2CCC[C@H]2C(=O)NC2(CCCC2)C(=O)N(C)[C@@H](C(C)C)C(=O)N(C)[C@H](C(=O)N2CCCCC2)CC(=O)N1C [Compound 1064] ([NMeL][Gly(cPent)][Sar][Sar][NMeCha][Sar][hPhe(3-Cl-4-CF3)]P[Ac5c][NMeV][NMeD]-Piperidide; lactam N-11) | log10 IC50 | 0.63
